Test system: MCF10A
Assay: one-nucleolus phenotype percent effect (relative to siNT 0% and siNOL11 100%); higher = more cells with one nucleolus (ribosome biogenesis inhibition)
Conditions: 20 nM; 72 h
PROPERTY: one-nucleolus phenotype percent effect (%)
Field: numeric (%). Do not append units.

INSERT INTO results (macromolecule_sequence, property, uom, val) VALUES
  ('UCUGGGCACAGGCGGAUGGACAGG [hsa-miR-5189]', 'one-nucleolus phenotype percent effect', '%', 29.3),
  ('CGGGUGGGAGCAGAUCUUAUUGAG [hsa-miR-6766-5p]', 'one-nucleolus phenotype percent effect', '%', -20.9),
  ('UGGACCUCUCCUCCCCAG [hsa-miR-6861-3p]', 'one-nucleolus phenotype percent effect', '%', 2.35);

// field: one-nucleolus phenotype percent effect; key: AAGACGGGAGGAAAGAAGGGAG [hsa-miR-483-5p] ; value = 19.1

// field: one-nucleolus phenotype percent effect; key: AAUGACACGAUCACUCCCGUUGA [hsa-miR-425-5p] ; value = -5.83

// field: one-nucleolus phenotype percent effect; key: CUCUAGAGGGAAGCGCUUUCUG [hsa-miR-518e-5p] ; value = -0.877

// field: one-nucleolus phenotype percent effect; key: UGUCUAUACUCUGUCACUUUAC [hsa-miR-4796-5p] ; value = 45.9

// field: one-nucleolus phenotype percent effect; key: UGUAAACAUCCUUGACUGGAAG [hsa-miR-30e-5p] ; value = 0.878

----------
System: MCF10A
Experiment: percent viability (nuclei count relative to siNT); higher = more viable cells
Conditions: 20 nM; 72 h
Items are presented alongside their recorded percent viability.

// field: percent viability; key: CAGGGGGACUGGGGGUGAGC [hsa-miR-6794-5p] ; value = 50.1%

----------
Test system: MCF10A
Test: one-nucleolus phenotype percent effect (relative to siNT 0% and siNOL11 100%); higher = more cells with one nucleolus (ribosome biogenesis inhibition)
Details: 20 nM; 72 h
Items are presented alongside their recorded one-nucleolus phenotype percent effect.
Field: numeric (%). Do not append units.

INSERT INTO measurements (macromolecule_sequence, val) VALUES
  ('UGCCCUGAGACUUUUGCUC [hsa-miR-7976]', 17.4),
  ('GGCCAGCCACCAGGAGGGCUG [hsa-miR-3194-5p]', 81.9),
  ('UCUCGCAUCAGGAGGCAAGG [hsa-miR-6872-5p]', -13),
  ('GAGCCCCUCUCUGCUCUCCAG [hsa-miR-6769a-3p]', -15.3),
  ('AGCUGAGCUCCAUGGACGUGCAGU [hsa-miR-4663]', -21.4);

// field: one-nucleolus phenotype percent effect; key: CUGGGAGAAGGCUGUUUACUCU [hsa-miR-30c-2-3p] ; value = 45.5

// field: one-nucleolus phenotype percent effect; key: AGGUUGGGAUCGGUUGCAAUGCU [hsa-miR-92a-1-5p] ; value = 4.93

// field: one-nucleolus phenotype percent effect; key: CUGGGAGGUGGAUGUUUACUUC [hsa-miR-30b-3p] ; value = 39.4

// field: one-nucleolus phenotype percent effect; key: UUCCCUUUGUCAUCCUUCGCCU [hsa-miR-211-5p] ; value = -7.23

// field: one-nucleolus phenotype percent effect; key: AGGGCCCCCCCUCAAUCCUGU [hsa-miR-296-5p] ; value = 2.62

// field: one-nucleolus phenotype percent effect; key: UCGCCUCCUCCUCUCCC [hsa-miR-1281] ; value = 10.9

// field: one-nucleolus phenotype percent effect; key: GCCUAUCACAUAUCUGCCUGU [hsa-miR-3927-5p] ; value = -27.5
